Data provenance is PubChem BioAssay AID588852.

- Assay system: Muscarinic acetylcholine receptor M1 (Homo sapiens)
- Assay: CHRM1 blockers of acetylcholine calcium response – CHO-K1 cells, Fluo-8 calcium fluorescence, 1536-well, primary screen (AID 588852);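 further: peak over basal fluorescence ratio during 140 s after agonist addition; 0% = ACh EC80 plus DMSO and 100% = DMSO alone without agonist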
- Condition info: CHO-K1 hM1, Fluo-8 calcium fluorescence, ACh EC80 antagonist; at 3 µM; stronger effect = higher value
Hit rate of the full screen: of about 360,000 compounds, about 4,600 (1.3%) were called active. Only a selection was taken, and actives are over-represented in it overall.
Below, each entry is listed with its recorded inhibition.

Worked set:
| Compound | Observed value |
| --- | --- |
| COC(=O)C1=C(c2ccccc2OCc2ccccc2)C[C@@H]2CC[C@H]1N2C(=O)NCc1ccc(OC)cc1 | 18.3% (inactive) |
| c1ccc(CCN2CCC3(CC2)OCCO3)cc1 | -10% (inactive) |
| CCN(CC)P(=O)(Oc1cccc(C)c1)N(CC)CC | -22.1% (inactive) |
| COC(=O)C1=C(c2ccccc2)C[C@@H]2CC[C@H]1N2C(=O)N1CCCCC1 | -1.18% (inactive) |

Data request, read-out inhibition, for CC(CC(C#N)(c1ccccc1)c1ccccc1)N1CCCCC1 (stereo not given) 75.2% (active)

Looking for the measured inhibition of COC1C(O)C(C)OC(OC2CCC3(C=O)C(CCC4C3CCC3(C)C(C5=CC(=O)OC5)CCC43O)C2)C1O (stereo not given) , can you help? -8.54% (inactive)

Would you mind telling me what inhibition value was observed for CCOC(=O)C1(c2ccccc2)CCN(CC(O)c2ccc(NC(C)=O)cc2)CC1 (stereo not given) ? -8.72% (inactive)

Fill in: inhibition of `CC(=NCc1ccc2c(c1)OCO2)c1c(O)[nH]c(=O)[nH]c1=O` is ___ -24.2% (inactive)

Need inhibition of `CCOc1ccc(CN(CCCl)CCCl)cc1C(=O)OC` , thanks. -7.91% (inactive)

Field request: inhibition | item: `CCOC(=O)CNC(=O)N1Cc2cc(N3CCCCC3)ccc2-n2nncc2C1` -0.57% (inactive)

----------
- Assay system: Muscarinic acetylcholine receptor M1 (Homo sapiens)
- Assay: CHRM1 blockers of acetylcholine calcium response – CHO-K1 cells, Fluo-8 calcium fluorescence, 1536-well, primary screen (AID 588852);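 further: peak over basal fluorescence ratio during 140 s after agonist addition; 0% = ACh EC80 plus DMSO and 100% = DMSO alone without agonist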
- Condition info: CHO-K1 hM1, Fluo-8 calcium fluorescence, ACh EC80 antagonist; at 3 µM; stronger effect = higher value
The campaign covered roughly 360,000 compounds. About 4,600 (1.3%) were called active. This excerpt belongs to a sample that is enriched for actives.
# Lookup of reported inhibition keyed by entry
Please state the figure in %; there is no need to write the unit.

Form field: inhibition recorded for CCCC[N+]1(C)C2CC(OC(=O)C(CO)c3ccccc3)CC1C1OC12 (stereo unspecified) with Muscarinic acetylcholine receptor M1 (Homo sapiens) (enter value) 85.3

Request - read-out inhibition | tested on Muscarinic acetylcholine receptor M1 (Homo sapiens) | compound `COc1cccc(C(=O)N2C[C@H]3C[C@@H](C2)c2cccc(=O)n2C3)c1` -17.6

Param readout= inhibition; system= Muscarinic acetylcholine receptor M1 (Homo sapiens); entry= COc1ccc(-c2nc(CS(=O)CC(=O)N3CCC4(CC3)OCCO4)c(C)o2)cc1 (stereo unspecified) ; returns value. -12.6

Given the entry COc1cccc(C(c2nnnn2-c2ccc3c(c2)OCCO3)N2CCC3(CC2)C(=O)NCN3c2ccccc2)c1OC (stereo unspecified) , what inhibition was observed with Muscarinic acetylcholine receptor M1 (Homo sapiens)? -16.2

Enter reported inhibition observed with Muscarinic acetylcholine receptor M1 (Homo sapiens) for CC1CCCCN1Cc1cccnc1 (stereo unspecified) 3.5

Entry `CC1(C)C(c2ccccc2)=NC(c2cccnc2)=[N+]1[O-]` , system Muscarinic acetylcholine receptor M1 (Homo sapiens): what inhibition was measured? -21
